log10 of Ki for assorted compounds
Molecular target: D2 dopaminergic receptor (Rattus norvegicus)
Construct: Brains from male Sprague-Dawley 180-200 g rats; tissue Iffa Credo, France (animals); host or cells: rat brain striatum
Sequence (P61169 whole entry): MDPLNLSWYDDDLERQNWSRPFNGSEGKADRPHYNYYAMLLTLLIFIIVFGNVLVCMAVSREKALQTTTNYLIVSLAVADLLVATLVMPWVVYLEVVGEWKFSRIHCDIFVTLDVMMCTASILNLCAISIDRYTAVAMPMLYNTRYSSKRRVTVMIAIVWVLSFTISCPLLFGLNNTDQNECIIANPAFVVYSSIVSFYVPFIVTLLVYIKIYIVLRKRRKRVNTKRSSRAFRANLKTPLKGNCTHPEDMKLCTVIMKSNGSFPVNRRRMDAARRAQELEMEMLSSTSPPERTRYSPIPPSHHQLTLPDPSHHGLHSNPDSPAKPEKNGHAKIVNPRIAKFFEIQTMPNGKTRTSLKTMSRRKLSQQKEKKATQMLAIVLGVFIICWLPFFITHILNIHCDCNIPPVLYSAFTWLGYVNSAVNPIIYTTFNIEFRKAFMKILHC
Assay: Binding to the D2 dopaminergic receptor (displacement of [3H]YM-09151-2)
Design: species or system rat (male Sprague-Dawley), brain striatum
Conditions: read-out: pKi D2 (converted)
Base-10 log of Ki, unit nM.

Compound	log10 of Ki
Cn1ncc(OCCCCN2CCN(c3ncccn3)CC2)nc1=O [Compound 1]	3.20
Cc1ccnc(N2CCN(CCCCOc3cnn(C)c(=O)n3)CC2)n1.O=C(O)/C=C/C(=O)O [Compound 2, fumarate]	3.24
COc1ccnc(N2CCN(CCCCOc3cnn(C)c(=O)n3)CC2)n1 [Compound 4]	3.35
Cn1ncc(OCC[C@H]2CC[C@@H]3CN(c4ncccn4)CCN3C2)nc1=O (relative stereo) [Compound 24]	3.46
Cn1ncc(OCCCCN2CCN(c3nccc(Cl)n3)CC2)nc1=O [Compound 6]	3.23

Query: Could you share what log10 of Ki was measured for Cc1cc(C)nc(N2CCN(CCCCOc3cnn(C)c(=O)n3)CC2)n1.O=C(O)/C=C/C(=O)O [Compound 3, fumarate] , tested on D2 dopaminergic receptor (Rattus norvegicus)?
Response: 3.05

Query: Query the reported log10 of Ki for D2 dopaminergic receptor (Rattus norvegicus); item: Cn1ncc(OCCCCNCC2COc3ccccc3O2)nc1=O (centres unmarked) [Compound 20]
Response: 1.82

Query: Record lookup: for D2 dopaminergic receptor (Rattus norvegicus), what log10 of Ki belongs to COc1ccc(Cl)cc1N1CCN(CCCCOc2cnn(C)c(=O)n2)CC1 [Compound 19] ?
Response: 1.18

* * *

Target: 5-HT1A (Rattus norvegicus)
Assay: Serotoninergic (5-HT) syndrome
Type: in vivo, male rat (Sprague-Dawley)
Parameters: carried out with the male rat (Sprague-Dawley); from tissue; host or cells: whole living rat (in vivo)
Details: po; flat body posture (FBP), male rat; read-out: 5-HT syndrome ED50 FBP
Readout Type: ED50 (mg/kg)
// units = mg/kg; emit number, no label

Line Notation	ED50 (mg/kg)
Cn1ncc(OCCCCN2CCN(c3ncc(F)cn3)CC2)nc1=O	0.31

Query: State the recorded ED50 for this entry: Cc1ccnc(N2CCN(CCCCOc3cnn(C)c(=O)n3)CC2)n1.O=C(O)/C=C/C(=O)O
Response: 0.08

Query: # get_value(readout='ED50', item= Cn1ncc(OCCCCN2CCN(c3nccc(Cl)n3)CC2)nc1=O )
Response: 0.08

* * *

Recorded ED50, one value per entry.
Molecular target: 5-HT1A (Rattus norvegicus, UniProt P19327)
Sequence (P19327 1-422): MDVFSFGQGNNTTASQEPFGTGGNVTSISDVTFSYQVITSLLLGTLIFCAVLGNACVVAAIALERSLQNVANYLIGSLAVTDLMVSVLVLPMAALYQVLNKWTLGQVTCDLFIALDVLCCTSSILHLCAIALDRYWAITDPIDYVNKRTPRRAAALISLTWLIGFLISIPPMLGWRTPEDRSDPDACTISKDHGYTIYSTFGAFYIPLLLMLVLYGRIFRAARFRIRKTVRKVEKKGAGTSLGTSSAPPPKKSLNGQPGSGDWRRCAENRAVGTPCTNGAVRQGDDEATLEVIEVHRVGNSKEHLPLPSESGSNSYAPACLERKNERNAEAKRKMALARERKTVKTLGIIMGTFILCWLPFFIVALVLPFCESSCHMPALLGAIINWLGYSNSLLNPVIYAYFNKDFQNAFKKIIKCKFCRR
Assay: Serotoninergic (5-HT) syndrome
Format: in vivo, male rat (Sprague-Dawley)
Set-up: carried out with the male rat (Sprague-Dawley); from tissue; host or cells: whole living rat (in vivo)
Details: po; lower lip retraction (LLR), male rat; read-out: 5-HT syndrome ED50 LLR
// return numeric value only (unit: mg/kg, not printed)

Line Notation	Tgt	Value Unit	Readout Number
Cn1ncc(OCCCCN2CCN(c3ncccn3)CC2)nc1=O	5-HT1A (Rattus norvegicus, UniProt P19327)	mg/kg	0.02

Now let's try a different one.
Query: Record request: ED50 value, item Cn1ncc(OCCCCN2CCN(c3nccc(Cl)n3)CC2)nc1=O
Response: 0.08

* * *

Molecular target: UniProt P19327
Assay: Serotoninergic (5-HT) syndrome
Assay type: in vivo, male rat (Sprague-Dawley)
Parameters: carried out with the male rat (Sprague-Dawley); from tissue; host or cells: whole living rat (in vivo)
Settings: po; lower lip retraction (LLR), male rat; read-out: 5-HT syndrome ED50 LLR
Procedure: The central activity of the compounds of the invention was evaluated by their ability to provoke the 5-HT syndrome, which is characterized by: an alternating bending and stretching of the forepaws (reciprocal fore-paw treading: FPT) the retraction of the lower lip (lower lip on: LLR) a position or the ventral surface of the animal is incobtact with the ground and the hind paws extended (flat body posture: FBP). […]
Readout Type: ED50

Answered examples (2):
Compound	Tgt	ED50
Cn1ncc(OCCCCNCC2COc3ccccc3O2)nc1=O (stereo not drawn) [Compound 20]	UniProt P19327	< 0.04 mg/kg
Cn1ncc(OCC[C@H]2CC[C@@H]3CN(c4ncccn4)CCN3C2)nc1=O (relative stereo) [Compound 24]	UniProt P19327	< 0.04 mg/kg

Now for the compound whose ED50 we want.
Query: Look at this compound and give its reported ED50. Cn1ncc(OCC[C@H]2CC[C@@H]3CN(c4ncccn4)CCN3C2)nc1=O (single isomer, unassigned) [Compound 26]
Response: < 0.04 mg/kg

All figures here come from patent US6303603A.
